These measurements were taken from the kinase profiling compilation of Christmann-Franck et al. (2016).

# Tested on: CSNK2A2 (human)
# Test summary: KINOMEscan competition binding
# Assay conditions: compound 10.0 µM

>  <Structure string>
CCN(CCO)CCCOc1ccc2c(Nc3cc(CC(=O)Nc4cccc(F)c4)[nH]n3)ncnc2c1

>  <Unit of measure>
%

>  <kinase still bound, per cent of control>
86

$$$$
>  <Structure string>
CNC(=O)Nc1ccc(-c2nc(N3CC4CCC(C3)O4)c3cnn(C4CCC5(CC4)OCCO5)c3n2)cc1

>  <Unit of measure>
%

>  <kinase still bound, per cent of control>
100

$$$$
>  <Structure string>
CCc1nc(-c2cccc(C)c2)c(-c2ccnc(NC(=O)c3ccccc3)c2)s1

>  <Unit of measure>
%

>  <kinase still bound, per cent of control>
86

$$$$
>  <Structure string>
COc1cc2ncnc(Nc3cccc(Cl)c3)c2cc1OC

>  <Unit of measure>
%

>  <kinase still bound, per cent of control>
16

$$$$
>  <Structure string>
COc1cc(N2CCC(C(N)=O)CC2)ccc1Nc1nc(N)c(Cl)c(Nc2ccccc2S(=O)(=O)C(C)C)n1

>  <Unit of measure>
%

>  <kinase still bound, per cent of control>
100

$$$$
>  <Structure string>
N#C/C(=C1/Nc2ccccc2S1)c1ccnc(NCCc2cccnc2)n1

>  <Unit of measure>
%

>  <kinase still bound, per cent of control>
1

$$$$
>  <Structure string>
COc1cc2c(Nc3ccc(NC(=O)c4ccccc4)cc3)ncnc2cc1OCCCN1CCOCC1

>  <Unit of measure>
%

>  <kinase still bound, per cent of control>
100

$$$$
>  <Structure string>
CCOc1cc(N2CCC(O)CC2)ccc1Nc1ncc2c(n1)N(C)c1ccccc1C(=O)N2C

>  <Unit of measure>
%

>  <kinase still bound, per cent of control>
100

$$$$
>  <Structure string>
N#Cc1cc(-c2ccnc(Nc3ccc(-n4cnc(-c5cccnc5)n4)cc3)n2)cc(N2CCOCC2)c1

>  <Unit of measure>
%

>  <kinase still bound, per cent of control>
11

$$$$

* * *

# System: EGFR (human), P00533 [G719C]
# Test summary: KINOMEscan competition binding
# Assay conditions: compound 10.0 µM
Catalogue of kinase still bound, per cent of control values

>  <Compound>
CS(=O)(=O)N1CCN(Cc2cc3nc(-c4cccc5[nH]ncc45)nc(N4CCOCC4)c3s2)CC1

>  <kinase still bound, per cent of control>
100%

$$$$
>  <Compound>
COc1cc(N2CCN(C)CC2)ccc1Nc1ncc2c(n1)N(C)c1ccccc1C(=O)N2C

>  <kinase still bound, per cent of control>
100%

$$$$
>  <Compound>
C[C@@H](Oc1cc(-n2cnc3ccc(CN4CCN(C)CC4)cc32)sc1C(N)=O)c1ccccc1C(F)(F)F

>  <kinase still bound, per cent of control>
100%

$$$$
>  <Compound>
COc1cc2ncnc(Nc3cccc(Cl)c3)c2cc1OC

>  <kinase still bound, per cent of control>
0.1%

$$$$
>  <Compound>
Cc1cn(-c2cc(C(=O)Nc3ccc(C)c(NC(=O)c4ccno4)c3)cc(C(F)(F)F)c2)cn1

>  <kinase still bound, per cent of control>
100%

$$$$
>  <Compound>
COc1cc(C(=O)NC2CCN(C)CC2)ccc1Nc1ncc2c(n1)N(C1CCCC1)C(C)CC(=O)N2C (stereo not given)

>  <kinase still bound, per cent of control>
100%

$$$$
>  <Compound>
N#Cc1cc(-c2ccnc(Nc3ccc(-n4cnc(-c5cccnc5)n4)cc3)n2)cc(N2CCOCC2)c1

>  <kinase still bound, per cent of control>
71%

$$$$
>  <Compound>
COc1cc(C(=O)NC2CCN(C)CC2)ccc1Nc1ncc2c(n1)N(C1CCCC1)CCC(=O)N2C(C)C

>  <kinase still bound, per cent of control>
100%

$$$$
>  <Compound>
OCCCNc1cc(-c2ccnc(Nc3cccc(Cl)c3)n2)ccn1

>  <kinase still bound, per cent of control>
100%

$$$$
>  <Compound>
C=CC(=O)Nc1ccc(C(=O)c2sc(Nc3ccc(N4CCN(C)CC4)cc3OC)nc2N)cc1

>  <kinase still bound, per cent of control>
3%

$$$$

* * *

# Tested on: TAOK2 (human)
# Test summary: KINOMEscan competition binding
# Assay conditions: compound 10.0 µM
Catalogue of kinase still bound, per cent of control values

>  <Structure string>
CCN1CCN(Cc2ccc(NC(=O)c3ccc(C)c(/C=C/c4cnc5[nH]ccc5c4OC)c3)cc2C(F)(F)F)CC1

>  <kinase still bound, per cent of control [%]>
0.5

$$$$
>  <Structure string>
CCN(CCO)CCCOc1ccc2c(Nc3cc(CC(=O)Nc4cccc(F)c4)[nH]n3)ncnc2c1

>  <kinase still bound, per cent of control [%]>
98

$$$$
>  <Structure string>
CCCS(=O)(=O)Nc1ccc(F)c(C(=O)c2c[nH]c3ncc(Cl)cc23)c1F

>  <kinase still bound, per cent of control [%]>
43

$$$$
>  <Structure string>
O=c1[nH]c2ccccc2n1C1CCN(Cc2ccc(-c3nc4cc5[nH]cnc5cc4nc3-c3ccccc3)cc2)CC1

>  <kinase still bound, per cent of control [%]>
85

$$$$
>  <Structure string>
N#C/C(=C1/Nc2ccccc2S1)c1ccnc(NCCc2cccnc2)n1

>  <kinase still bound, per cent of control [%]>
45

$$$$

* * *

# Tested on: PTK2B (human)
# Test summary: KINOMEscan competition binding
# Assay conditions: compound 10.0 µM

>  <Compound>
COc1ccc(N(C(=O)Oc2cc(C(=O)Nc3cccc(C(F)(F)F)c3)ccc2C)c2ccnc(Nc3ccc(N4CCN(C)CC4)cc3)n2)c(OC)c1

>  <Tested on>
PTK2B (human)

>  <kinase still bound, per cent of control>
0.9%

$$$$
>  <Compound>
O=c1[nH]c2ccccc2n1C1CCN(Cc2ccc(-c3nc4cc5[nH]cnc5cc4nc3-c3ccccc3)cc2)CC1

>  <Tested on>
PTK2B (human)

>  <kinase still bound, per cent of control>
91%

$$$$
>  <Compound>
CCN1CCN(Cc2ccc(NC(=O)c3ccc(C)c(/C=C/c4cnc5[nH]ccc5c4OC)c3)cc2C(F)(F)F)CC1

>  <Tested on>
PTK2B (human)

>  <kinase still bound, per cent of control>
0.75%

$$$$
>  <Compound>
COc1cc(C)c(Sc2cnc(NC(=O)c3ccc(CNC(C)C(C)C)cc3)s2)cc1C(=O)N1CCN(C(C)=O)CC1 (configuration not stated)

>  <Tested on>
PTK2B (human)

>  <kinase still bound, per cent of control>
100%

$$$$
>  <Compound>
CC(=O)c1c(C)c2cnc(Nc3ccc(N4CCNCC4)cn3)nc2n(C2CCCC2)c1=O

>  <Tested on>
PTK2B (human)

>  <kinase still bound, per cent of control>
31%

$$$$
>  <Compound>
CNC(=O)Nc1ccc(-c2nc(N3CC4CCC(C3)O4)c3cnn(C4CCC5(CC4)OCCO5)c3n2)cc1

>  <Tested on>
PTK2B (human)

>  <kinase still bound, per cent of control>
100%

$$$$
>  <Compound>
N#C/C(=C1/Nc2ccccc2S1)c1ccnc(NCCc2cccnc2)n1

>  <Tested on>
PTK2B (human)

>  <kinase still bound, per cent of control>
89%

$$$$
>  <Compound>
CCCS(=O)(=O)Nc1ccc(F)c(C(=O)c2c[nH]c3ncc(Cl)cc23)c1F

>  <Tested on>
PTK2B (human)

>  <kinase still bound, per cent of control>
83%

$$$$
>  <Compound>
CC1=C(C(=O)Nc2cc3cn[nH]c3cc2F)C(c2ccc(C(F)(F)F)cc2)CC(=O)N1 (configuration not stated)

>  <Tested on>
PTK2B (human)

>  <kinase still bound, per cent of control>
100%

$$$$
>  <Compound>
Cc1cn(-c2cc(C(=O)Nc3ccc(C)c(NC(=O)c4ccno4)c3)cc(C(F)(F)F)c2)cn1

>  <Tested on>
PTK2B (human)

>  <kinase still bound, per cent of control>
100%

$$$$
>  <Compound>
C=CC(=O)Nc1ccc(C(=O)c2sc(Nc3ccc(N4CCN(C)CC4)cc3OC)nc2N)cc1

>  <Tested on>
PTK2B (human)

>  <kinase still bound, per cent of control>
42%

$$$$
>  <Compound>
COc1cc2c(Nc3ccc(NC(=O)c4ccccc4)cc3)ncnc2cc1OCCCN1CCOCC1

>  <Tested on>
PTK2B (human)

>  <kinase still bound, per cent of control>
98%

$$$$
>  <Compound>
N#Cc1cc(-c2ccnc(Nc3ccc(-n4cnc(-c5cccnc5)n4)cc3)n2)cc(N2CCOCC2)c1

>  <Tested on>
PTK2B (human)

>  <kinase still bound, per cent of control>
20%

$$$$
>  <Compound>
CCN(CCO)CCCOc1ccc2c(Nc3cc(CC(=O)Nc4cccc(F)c4)[nH]n3)ncnc2c1

>  <Tested on>
PTK2B (human)

>  <kinase still bound, per cent of control>
100%

$$$$
>  <Compound>
CCOc1cc(N2CCC(O)CC2)ccc1Nc1ncc2c(n1)N(C)c1ccccc1C(=O)N2C

>  <Tested on>
PTK2B (human)

>  <kinase still bound, per cent of control>
100%

$$$$
>  <Compound>
COc1cc2ncnc(Nc3cccc(Cl)c3)c2cc1OC

>  <Tested on>
PTK2B (human)

>  <kinase still bound, per cent of control>
86%

$$$$
>  <Compound>
COc1cc(N2CCC(C(N)=O)CC2)ccc1Nc1nc(N)c(Cl)c(Nc2ccccc2S(=O)(=O)C(C)C)n1

>  <Tested on>
PTK2B (human)

>  <kinase still bound, per cent of control>
0.15%

$$$$
